Reference source: patent US7462600B2

# System: Haemophilus influenzae 1218
# Protocol: MIC, microtiter broth dilution (NCCLS M100-S14), H. influenzae 1218 (susceptible)
# Type: cell-based
# Condition Context: Haemophilus influenzae 1218
// NB: equality with 0.5 µg/mL counts as False; only MIC H. influenzae 1218 strictly below is True

[
  {
    "Compound": "CCC1OC(=O)C(C)C(=O)C(C)C(OC2OC(C)CC(N(C)C)C2O)C(C)(OC)CC(C)C(=O)C(C)C2N(CC3CN(Cc4c[nH]c5ncccc45)C3)C(=O)OC12C (centres unmarked) [Example 4.18]",
    "Assay System": "Haemophilus influenzae 1218",
    "Assigned Category": "True"
  },
  {
    "Compound": "CCC1OC(=O)C(C)C(=O)C(C)C(OC2OC(C)CC(N(C)C)C2O)C(C)(OC)CC(C)C(=O)C(C)C2N(C3CN(S(=O)(=O)c4ccc(-n5nccn5)cc4)C3)C(=O)OC12C (centres unmarked) [Example 3.55]",
    "Assay System": "Haemophilus influenzae 1218",
    "Assigned Category": "False"
  },
  {
    "Compound": "CCC1OC(=O)C(C)C(=O)C(C)C(OC2OC(C)CC(N(C)C)C2O)C(C)(OC)CC(C)C(=O)C(C)C2N(C3CN(Cc4c(Br)cnc5ncccc45)C3)C(=O)OC12C (centres unmarked) [Example 1.75]",
    "Assay System": "Haemophilus influenzae 1218",
    "Assigned Category": "False"
  },
  {
    "Compound": "CCC1OC(=O)C(C)C(=O)C(C)C(OC2OC(C)CC(N(C)C)C2O)C(C)(OC)CC(C)C(=O)C(C)C2N(C3CN(C(=O)c4ccnc(-c5noc(C)n5)c4)C3)C(=O)OC12C (centres unmarked) [Example 2.18]",
    "Assay System": "Haemophilus influenzae 1218",
    "Assigned Category": "False"
  },
  {
    "Compound": "CCC1OC(=O)C(C)C(=O)C(C)C(OC2OC(C)CC(N(C)C)C2O)C(C)(OC)CC(C)C(=O)C(C)C2N(C3CN(S(=O)(=O)c4ccc5cnsc5c4)C3)C(=O)OC12C (centres unmarked) [Example 3.104]",
    "Assay System": "Haemophilus influenzae 1218",
    "Assigned Category": "True"
  },
  {
    "Compound": "CCC1OC(=O)C(C)C(=O)C(C)C(OC2OC(C)CC(N(C)C)C2O)C(C)(OC)CC(C)C(=O)C(C)C2N(CC3CN(C(=O)c4ccc5ncccc5c4)C3)C(=O)OC12C (centres unmarked) [4.33]",
    "Assay System": "Haemophilus influenzae 1218",
    "Assigned Category": "False"
  },
  {
    "Compound": "CCC1OC(=O)C(C)C(=O)C(C)C(OC2OC(C)CC(N(C)C)C2O)C(C)(OC)CC(C)C(=O)C(C)C2N(CC3CN(Cc4cccc5ncccc45)C3)C(=O)OC12C (centres unmarked) [4.15]",
    "Assay System": "Haemophilus influenzae 1218",
    "Assigned Category": "True"
  },
  {
    "Compound": "CCC1OC(=O)C(C)C(=O)C(C)C(OC2OC(C)CC(N(C)C)C2O)C(C)(OC)CC(C)C(=O)C(C)C2N(C3CN(C(=O)Nc4cc(-c5ccc(F)cc5)n[nH]4)C3)C(=O)OC12C (centres unmarked) [Example 2.07]",
    "Assay System": "Haemophilus influenzae 1218",
    "Assigned Category": "False"
  }
]

---

# MIC H. influenzae 1218 per record follows
# Test system: Haemophilus influenzae 1218
# Protocol: MIC, microtiter broth dilution (NCCLS M100-S14), H. influenzae 1218 (susceptible)
# Assay type: cell-based
# Condition Context: Haemophilus influenzae 1218
Parameter Measured: MIC H. influenzae 1218 (µg/mL)

[
  {
    "Compound": "CCC1OC(=O)C(C)C(=O)C(C)C(OC2OC(C)CC(N(C)C)C2O)C(C)(OC)CC(C)C(=O)C(C)C2N(C3CN(C(=O)Nc4ccc5ncccc5c4)C3)C(=O)OC12C (stereo not shown)",
    "Parameter Measured": "MIC H. influenzae 1218",
    "Quantity Unit": "µg/mL",
    "Reported Measurement": 0.5
  },
  {
    "Compound": "CC[C@H]1OC(=O)[C@H](C)C(=O)[C@H](C)[C@@H](O[C@@H]2O[C@H](C)C[C@H](N(C)C)[C@H]2O)[C@](C)(OC)C[C@@H](C)C(=O)[C@H](C)[C@H]2N(CC3(C)CN(Cc4cnc5ccccc5n4)C3)C(=O)O[C@]12C",
    "Parameter Measured": "MIC H. influenzae 1218",
    "Quantity Unit": "µg/mL",
    "Reported Measurement": 4
  },
  {
    "Compound": "CCC1OC(=O)C(C)C(=O)C(C)C(OC2OC(C)CC(N(C)C)C2O)C(C)(OC)CC(C)C(=O)C(C)C2N(C3CN(S(=O)(=O)c4ccc(C)c5ncccc45)C3)C(=O)OC12C (stereo not shown)",
    "Parameter Measured": "MIC H. influenzae 1218",
    "Quantity Unit": "µg/mL",
    "Reported Measurement": 0.5
  },
  {
    "Compound": "CC[C@H]1OC(=O)[C@H](C)[C@@H](OC(=O)N2CCCC2)[C@H](C)[C@@H](O[C@@H]2O[C@H](C)C[C@H](N(C)C)[C@H]2O)[C@](C)(OC)C[C@@H](C)C(=O)[C@H](C)[C@H]2N(CC3CN(C(=O)c4cccc5cccnc45)C3)C(=O)O[C@]12C",
    "Parameter Measured": "MIC H. influenzae 1218",
    "Quantity Unit": "µg/mL",
    "Reported Measurement": 4
  }
]

---

# Tested on: Streptococcus pneumoniae 1095
# Format: cell-based
# Condition Context: S. pneumoniae 1095 (ermB); microtiter broth dilution

[
  {
    "Molecule": "CCC1OC(=O)C(C)C(=O)C(C)C(OC2OC(C)CC(N(C)C)C2O)C(C)(OC)CC(C)C(=O)C(C)C2N(C3CCN(Cc4cccc5ncccc45)C3)C(=O)OC12C (centres unmarked)",
    "MIC S. pneumo. 1095": "<0.06 µg/mL"
  },
  {
    "Molecule": "CC[C@H]1OC(=O)[C@H](C)C(=O)[C@H](C)[C@@H](O[C@@H]2O[C@H](C)C[C@H](N(C)C)[C@H]2O)[C@](C)(OC)C[C@@H](C)C(=O)[C@H](C)[C@H]2N(CC3(C)CN(C(=O)c4cncc5ccccc45)C3)C(=O)O[C@]12C.O=CO",
    "MIC S. pneumo. 1095": "64 µg/mL"
  },
  {
    "Molecule": "CCC1OC(=O)C(C)C(=O)C(C)C(OC2OC(C)CC(N(C)C)C2O)C(C)(OC)CC(C)C(=O)C(C)C2N(CC3CCN(Cc4cnc5ccccc5c4)C3)C(=O)OC12C (centres unmarked)",
    "MIC S. pneumo. 1095": "<0.06 µg/mL"
  },
  {
    "Molecule": "CC[C@H]1OC(=O)[C@H](C)C(=O)[C@H](C)[C@@H](O[C@@H]2O[C@H](C)C[C@H](N(C)C)[C@H]2O)[C@](C)(OC)C[C@@H](C)C(=O)[C@H](C)[C@H]2N(CC3(O)CN(C(=O)c4cc5cccnc5[nH]4)C3)C(=O)O[C@]12C",
    "MIC S. pneumo. 1095": "0.12 µg/mL"
  },
  {
    "Molecule": "CCC1OC(=O)C(C)C(=O)C(C)C(OC2OC(C)CC(N(C)C)C2O)C(C)(OC)CC(C)C(=O)C(C)C2N(CC3CCCN3Cc3ccnc4ccccc34)C(=O)OC12C (centres unmarked)",
    "MIC S. pneumo. 1095": "<0.06 µg/mL"
  }
]

---

# Tested on: Streptococcus pneumoniae 1175
# Type: cell-based
# Condition Context: Streptococcus pneumoniae 1175; microtiter broth dilution

[
  {
    "Compound": "CCC1OC(=O)C(C)C(=O)C(C)C(OC2OC(C)CC(N(C)C)C2O)C(C)(OC)CC(C)C(=O)C(C)C2N(C3CN(Cc4c(Cl)cnc5ncccc45)C3)C(=O)OC12C (stereo not drawn) [Example 1.76]",
    "MIC S. pneumo. 1175": "<0.063 µg/mL"
  },
  {
    "Compound": "CCC1OC(=O)C(C)C(=O)C(C)C(OC2OC(C)CC(N(C)C)C2O)C(C)(OC)CC(C)C(=O)C(C)C2N(C3CN(S(=O)(=O)c4ccc(Oc5cccnc5)cc4)C3)C(=O)OC12C (stereo not drawn) [Example 3.27, 4-(pyridin-3-yloxy) benzenesulfonyl]",
    "MIC S. pneumo. 1175": "<0.06 µg/mL"
  },
  {
    "Compound": "CCC1OC(=O)C(C)C(=O)C(C)C(OC2OC(C)CC(N(C)C)C2O)C(C)(OC)CC(C)C(=O)C(C)C2N(CC3CN(Cc4nc5ccccc5[nH]4)C3)C(=O)OC12C (stereo not drawn) [4.16]",
    "MIC S. pneumo. 1175": "0.25 µg/mL"
  },
  {
    "Compound": "CCC1OC(=O)C(C)C(=O)C(C)C(OC2OC(C)CC(N(C)C)C2O)C(C)(OC)CC(C)C(=O)C(C)C2N(C3CN(S(=O)(=O)c4ccc(C)c5nccnc45)C3)C(=O)OC12C (stereo not drawn) [Example 3.114]",
    "MIC S. pneumo. 1175": "<0.063 µg/mL"
  },
  {
    "Compound": "CCC1OC(=O)C(C)C(=O)C(C)C(OC2OC(C)CC(N(C)C)C2O)C(C)(OC)CC(C)C(=O)C(C)C2N(C3CN(C(c4ccccc4)c4cccnc4)C3)C(=O)OC12C (single isomer, unassigned) [Example 1.66, phenyl-(pyridin-3-yl)methyl (*)]",
    "MIC S. pneumo. 1175": "<0.06 µg/mL"
  },
  {
    "Compound": "CCC1OC(=O)C(C)C(=O)C(C)C(OC2OC(C)CC(N(C)C)C2O)C(C)(OC)CC(C)C(=O)C(C)C2N(CC3CN(Cc4ccn[nH]4)C3)C(=O)OC12C (stereo not drawn) [4.09]",
    "MIC S. pneumo. 1175": "0.5 µg/mL"
  },
  {
    "Compound": "CC[C@H]1OC(=O)[C@H](C)C(=O)[C@H](C)[C@@H](O[C@@H]2O[C@H](C)C[C@H](N(C)C)[C@H]2O)[C@](C)(OC)C[C@@H](C)C(=O)[C@H](C)[C@H]2N(C3CN(Cc4c(Br)cnc5nccnc45)C3)C(=O)O[C@]12C [Example 1.74]",
    "MIC S. pneumo. 1175": "<0.063 µg/mL"
  },
  {
    "Compound": "CCOc1ccc2ccccc2c1CN1CC(N2C(=O)OC3(C)C(CC)OC(=O)C(C)C(=O)C(C)C(OC4OC(C)CC(N(C)C)C4O)C(C)(OC)CC(C)C(=O)C(C)C23)C1 (stereo not drawn) [Example 1.97]",
    "MIC S. pneumo. 1175": "<0.063 µg/mL"
  },
  {
    "Compound": "CCC1OC(=O)C(C)C(=O)C(C)C(OC2OC(C)CC(N(C)C)C2O)C(C)(OC)CC(C)C(=O)C(C)C2N(C3CN(S(=O)(=O)c4cccc(-c5ncno5)c4)C3)C(=O)OC12C (stereo not drawn) [Example 3.59]",
    "MIC S. pneumo. 1175": "8 µg/mL"
  }
]
